- Measured on: Bombesin receptor subtype-3 (Homo sapiens, UniProt P32247)
- Sequence (P32247 whole entry): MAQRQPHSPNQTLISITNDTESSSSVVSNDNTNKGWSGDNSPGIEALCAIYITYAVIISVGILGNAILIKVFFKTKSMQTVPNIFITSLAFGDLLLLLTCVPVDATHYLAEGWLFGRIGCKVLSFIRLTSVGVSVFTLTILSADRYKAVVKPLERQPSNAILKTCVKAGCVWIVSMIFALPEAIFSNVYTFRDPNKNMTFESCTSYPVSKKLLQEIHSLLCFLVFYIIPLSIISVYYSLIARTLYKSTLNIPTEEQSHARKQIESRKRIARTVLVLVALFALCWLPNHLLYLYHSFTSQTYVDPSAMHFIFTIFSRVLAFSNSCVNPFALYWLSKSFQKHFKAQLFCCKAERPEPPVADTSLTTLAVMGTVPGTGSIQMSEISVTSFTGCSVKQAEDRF
- Assay method text: Agonist activity at human BRS3 by functional assay
pEC50: −log10 of the molar value.
Observation type: pEC50

Compound	pEC50
O=S(=O)(Nc1nc(C2CCC2)n[nH]1)c1cnccc1NC1CC2CCC1C2 (single isomer, unassigned; faster eluting)	6.42

A: CC(C)NC(=O)NS(=O)(=O)c1cnccc1N[C@@H]1C[C@H]2CC[C@@H]1C2 (racemic)
B: O=S(=O)(Nc1nc(C2CCC2)n[nH]1)c1cnccc1NC1CC2CCC1C2 (single isomer, unassigned)
Incoming: Lab note: record which item had the higher pEC50, A or B . # answer = label of selected item
Outgoing: A
(A: 6.36, B: 5.77)

----------
- Measured on: Bombesin receptor subtype-3 (Mus musculus) (UniProt O54798)
- Assay method text: Agonist activity at mouse BRS3 by functional assay relative to control
Observation type: Activity (%)

Compound	Measured on	Activity, %
O=S(=O)(Nc1nc(C2CCC2)n[nH]1)c1cnccc1NC1CC2CCC1C2 (single isomer, unassigned)	Bombesin receptor subtype-3 (Mus musculus) (UniProt O54798)	88
O=S(=O)(Nc1nc(C2CCC2)n[nH]1)c1cnccc1NC1CC2CCC1C2 (single isomer, unassigned; faster eluting)	Bombesin receptor subtype-3 (Mus musculus) (UniProt O54798)	87

P: CCC(C)(C)NC(=O)NS(=O)(=O)c1cnccc1N[C@@H]1C[C@H]2CC[C@@H]1C2 (racemic)
Q: CC(C)c1n[nH]c(NS(=O)(=O)c2cnccc2N[C@@H]2C[C@H]3CC[C@@H]2C3)n1 (racemic)
Incoming: Lab note: record which item had the higher Activity, P or Q . # answer = label of selected item
Outgoing: P

----------
- Measured on: Bombesin receptor subtype-3 (Mus musculus)
- Sequence (whole entry): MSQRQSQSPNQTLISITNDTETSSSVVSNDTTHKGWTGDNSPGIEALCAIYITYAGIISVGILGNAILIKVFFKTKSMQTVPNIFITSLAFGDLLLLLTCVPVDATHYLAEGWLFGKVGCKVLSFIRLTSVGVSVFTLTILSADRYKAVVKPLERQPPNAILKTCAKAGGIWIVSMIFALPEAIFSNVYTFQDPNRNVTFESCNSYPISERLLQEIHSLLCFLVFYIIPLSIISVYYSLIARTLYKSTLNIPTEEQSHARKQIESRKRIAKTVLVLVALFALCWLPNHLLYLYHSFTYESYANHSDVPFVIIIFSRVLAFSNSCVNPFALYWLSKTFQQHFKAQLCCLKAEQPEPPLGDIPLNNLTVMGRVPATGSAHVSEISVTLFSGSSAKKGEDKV
- Assay method text: Agonist activity at mouse BRS3 by functional assay relative to control
Observation type: Activity (%)

Some solved entries appear below for comparison.
Compound	Observation type	Readout value
CC(C)(C)NC(=O)NS(=O)(=O)c1cnccc1O[C@@H]1C[C@@H]2CC[C@H]1C2	Activity	77
CC(C)(C)NC(=O)NS(=O)(=O)c1cnccc1N[C@@H]1C[C@H]2CC[C@]1(C)C2(C)C	Activity	88
CC(C)(C)c1csc(NS(=O)(=O)c2cnccc2N[C@@H]2C[C@H]3CC[C@@H]2C3)n1 (racemic)	Activity	81
CC(C)(C)NC(=O)NS(=O)(=O)c1cnccc1NC1CCCCC1	Activity	90
CC(C)(C)c1cccc(NS(=O)(=O)c2cnccc2N[C@@H]2C[C@H]3CC[C@@H]2C3)c1 (racemic)	Activity	102

a: CN(C(=O)NS(=O)(=O)c1cnccc1N[C@@H]1C[C@H]2CC[C@@H]1C2)C(C)(C)C (racemic)
b: O=C(NC12CC3CC(CC(C3)C1)C2)NS(=O)(=O)c1cnccc1N[C@@H]1C[C@H]2CC[C@@H]1C2 (mixture of isomers)
c: CC(C)(C)NC(=O)NS(=O)(=O)c1cnccc1NCc1ccccc1
d: CC(C)(C)NC(=N)NS(=O)(=O)c1cnccc1N[C@@H]1C[C@H]2CC[C@@H]1C2 (racemic)
Incoming: hey, can you rank those compounds up there by Activity? biggest number first please Write the labels, ordered according to the request.
Outgoing: a, b, c, d

----------
- Measured on: Bombesin receptor subtype-3 (Homo sapiens)
- Assay method text: Binding affinity to human BRS3
pIC50: −log10 of the molar value.
Observation type: pIC50

Some solved entries appear below for comparison.
Compound	Measured on	pIC50
CC(C)(C)c1cccc(NS(=O)(=O)c2cnccc2N[C@@H]2C[C@H]3CC[C@@H]2C3)c1 (racemic)	Bombesin receptor subtype-3 (Homo sapiens)	6.28
CC(C)(C)NC(=O)NS(=O)(=O)c1cnccc1O[C@@H]1C[C@@H]2CC[C@H]1C2	Bombesin receptor subtype-3 (Homo sapiens)	6.06

A: CC(C)c1n[nH]c(NS(=O)(=O)c2cnccc2N[C@@H]2C[C@H]3CC[C@@H]2C3)n1 (racemic)
B: CC(C)(C)NC(=O)NS(=O)(=O)c1ccccc1N[C@@H]1C[C@H]2CC[C@@H]1C2 (racemic)
Incoming: Input pair: A , B . Output: entry with lower pIC50. # answer = label of selected item
Outgoing: B
(B: 5.21, A: 6.11)

----------
- Measured on: UniProtKB O54798
- Assay method text: Agonist activity at mouse BRS3 by functional assay
pEC50: −log10 of the molar value.
Observation type: pEC50

Some solved entries appear below for comparison.
Molecule	pEC50
CC(C)(C)NC(=O)NS(=O)(=O)c1cnccc1NC1CCCCC1	6.59
CC(C)(C)NC(=O)NS(=O)(=O)c1cnccc1N[C@H]1C[C@H]2CC[C@@H]1C2 (racemic)	7.31
CC(C)(C)NC(=O)NS(=O)(=O)c1cnccc1NC(C)(C)c1ccccc1	5.37

A: CC(C)c1n[nH]c(NS(=O)(=O)c2cnccc2N[C@@H]2C[C@H]3CC[C@@H]2C3)n1 (racemic)
B: CC(C)(C)c1cccc(NS(=O)(=O)c2cnccc2N[C@@H]2C[C@H]3CC[C@@H]2C3)c1 (racemic)
C: CC(C)(C)CC(=O)NS(=O)(=O)c1cnccc1N[C@@H]1C[C@H]2CC[C@@H]1C2 (racemic)
Incoming: hey, can you rank those molecules up there by pEC50? biggest number first please Write the labels, ordered according to the request.
Outgoing: B, A, C
(B: 6.80, A: 6.39, C: 5.31)

1: O=S(=O)(Nc1nc(C2CCC2)n[nH]1)c1cnccc1NC1CC2CCC1C2 (single isomer, unassigned; faster eluting)
2: CCC(C)(C)NC(=O)NS(=O)(=O)c1cnccc1N[C@@H]1C[C@H]2CC[C@@H]1C2 (racemic)
3: CC(C)(C)NC(=O)NS(=O)(=O)c1cnccc1NC1CCc2ccccc21 (racemic)
Incoming: hey, can you rank those molecules up there by pEC50? biggest number first please Write the labels, ordered according to the request.
Outgoing: 2, 1, 3

1: CC(C)(C)NC(=O)NS(=O)(=O)c1cnccc1NCc1ccccc1
2: O=C(NC12CC3CC(CC(C3)C1)C2)NS(=O)(=O)c1cnccc1N[C@@H]1C[C@H]2CC[C@@H]1C2 (mixture of isomers)
Incoming: Lab note: record which item had the higher pEC50, 1 or 2 . # answer = label of selected item
Outgoing: 2

----------
- Measured on: Bombesin receptor subtype-3 (Mus musculus) (UniProt O54798)
- Sequence (whole entry): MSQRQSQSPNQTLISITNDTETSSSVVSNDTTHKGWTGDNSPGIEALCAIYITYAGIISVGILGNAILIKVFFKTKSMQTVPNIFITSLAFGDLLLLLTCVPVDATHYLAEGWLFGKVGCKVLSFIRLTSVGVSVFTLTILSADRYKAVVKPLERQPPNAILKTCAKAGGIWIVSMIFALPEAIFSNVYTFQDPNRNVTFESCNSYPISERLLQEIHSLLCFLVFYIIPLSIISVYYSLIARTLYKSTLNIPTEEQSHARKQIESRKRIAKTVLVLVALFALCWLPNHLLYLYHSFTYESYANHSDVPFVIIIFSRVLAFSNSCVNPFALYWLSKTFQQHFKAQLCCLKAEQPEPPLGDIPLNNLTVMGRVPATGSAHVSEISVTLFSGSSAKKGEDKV
- Assay method text: Agonist activity at mouse BRS3 by functional assay relative to control
Observation type: Activity (%)

Compound	Unit descriptor	Activity
CC(C)(C)NC(=O)NS(=O)(=O)c1cnccc1N[C@@H]1C[C@H]2CC[C@@H]1C2 (racemic)	%	101
CC(C)(C)NC(=O)NS(=O)(=O)c1ccccc1N[C@@H]1C[C@H]2CC[C@@H]1C2 (racemic)	%	91
CC(C)(C)NC(=O)NS(=O)(=O)c1cnccc1N[C@@H]1C[C@H]2CC[C@@H]1C2	%	100
CC(C)(C)NC(=O)NS(=O)(=O)c1cnccc1N[C@H]1C[C@H]2CC[C@]1(C)C2(C)C	%	82
CC(C)(C)NC(=O)NS(=O)(=O)c1cnccc1NC1CCc2ccccc21 (racemic)	%	63

a: CC(C)NC(=O)NS(=O)(=O)c1cnccc1N[C@@H]1C[C@H]2CC[C@@H]1C2 (racemic)
b: CC(C)(C)NC(=O)NS(=O)(=O)c1cnccc1NC(C)(C)c1ccccc1
Incoming: Lab note: record which item had the higher Activity, a or b . # answer = label of selected item
Outgoing: a
(a: 88%, b: 43%)

1: O=S(=O)(Nc1nc(C2CCC2)n[nH]1)c1cnccc1N[C@@H]1C[C@H]2CC[C@@H]1C2 (racemic)
2: CN(C(=O)NC(C)(C)C)S(=O)(=O)c1cnccc1N[C@@H]1C[C@H]2CC[C@@H]1C2 (racemic)
Incoming: Input pair: 1 , 2 . Output: entry with lower Activity. # answer = label of selected item
Outgoing: 2
(2: 49%, 1: 84%)
